Just for reference, PubChem BioAssay (NCI) is where these values come from.

System: U251 CNS
Assay: NCI-60 one-dose screen, 48 h (100 = growth as untreated, 0 = no growth, -100 = all killed)
Settings: 10 µM unless noted
Compounds without any hit were thinned out: in the full panel of roughly 83,000, 20% have a hit.
Hi there, I'd appreciate the recorded growth for every entry that follows.
Write it as a number; the unit % goes unstated.

Ask: API: value(readout= growth, system= U251 CNS, query= `O=Nc1c(O)ccc2ccccc12` )
Result: 99.4

Ask: How about `N=c1ccccn1CCO` ?
Result: 109

Ask: And `Nc1c(C(=O)Nc2ccncc2)sc2nc3c(cc12)CCCCCCCC3` ?
Result: -89.2

Ask: Next: `CC(=O)c1c(C)nc2ccccc2c1/C=C/c1cccc(C)c1`
Result: 49.8

Ask: Same again, this time with CCCn1nc(C(=O)N2CCCCC2)c2c1CCC(N1CCC(c3ccncc3)CC1)C2 (stereo unspecified)
Result: 101

Ask: // same read-out, input: `Nn1c(-c2ccc(Cl)cc2)nc2c(-c3ccc(Cl)cc3)nc3ccc(Cl)cc3c2c1=O`
Result: -63.5

Ask: // same read-out, input: `Cc1ccc(C(=O)Nc2ccc(CN3CCN(C)CC3)c(C(F)(F)F)c2)cc1C#Cc1cnc(N)cc1C#N`
Result: -73.6

Ask: What would you report for CCCCCCCCCCCCCCCC(=O)O[C@@H]1[C@@H](O)[C@@H](O)C([C@H](NC(=O)[C@@H]2C[C@@H](CCC)CN2C)[C@H](C)Cl)O[C@@H]1SC (stereo partly specified) ?
Result: 102

Ask: Next up: `O=C1/C(=C/c2cn(-c3ccccc3)nc2-c2ccccc2)SC(=S)N1c1ccccc1`
Result: 103

Ask: Quick one: `COc1cc(-c2[nH]ncc2Nc2ccc(Cl)cc2)cc(OC)c1OC`
Result: 68.9

Ask: Record: `O=C1/C(=C/c2ccc(-c3ccccc3C(F)(F)F)o2)SC(=S)N1CCc1ccc(O)cc1`
Result: 44.1

====

System: PC-3 prostate
Assay: NCI-60 one-dose screen, 48 h (100 = growth as untreated, 0 = no growth, -100 = all killed)
Details: 10 µM unless noted
The panel holds about 83,000 compounds, 20% with a hit somewhere; the sample as a whole holds those more often.
Value Kind: growth (%)
Reply with just the number (in %).

Ask: Value lookup for growth; key = O=C1OCC2=C1C(c1cccc(C(F)(F)F)c1)c1cc3c(cc1N2CCO)OCCO3 (stereo unspecified)
Result: 26.2

Ask: What about this compound? `O=C1CCCCN1CCCCC#Cc1cccc(C#Cc2cccnc2)c1`
Result: 61.5

Ask: Quick one: `Cc1ccc(/C=C2\COc3ccc(O)c(O)c3C2=O)cc1`
Result: -10.4

Ask: For `CC(C)(C)c1cc(C(C)(C)c2ccccc2)cc(Cc2cc(C(C)(C)c3ccccc3)cc(C(C)(C)C)c2O)c1O` then?
Result: 74.9

Ask: Then this compound: `O=C1C(=C(O)c2ccccc2)C(=O)c2ccccc21`
Result: 94.5

Ask: // repeat for `N#CSc1c[nH]c2ccc(/C=C/C(=O)/C=C(/C=C/c3ccc4[nH]cc(SC#N)c4c3)OB(F)F)cc12` and report
Result: -22.5

Ask: Another compound to look at: `OCCN1CCN(c2cc(-c3cccc(OC(F)(F)F)c3)nc3ccc(N4CCCC4)cc23)CC1`
Result: 25.9

Ask: Record: CCCCC1COc2cccc3c2N1C=C/C3=C\C(=O)N(C)c1cccc(Cl)c1 (stereo unspecified)
Result: 89.6

Ask: Same lookup for `COC(=O)c1nc(-c2ccc(C)cc2)oc1Sc1ccc(C)cc1` , please.
Result: 78.4

Ask: Can you check `Cc1cc(N2CCCCC2)nc(NCc2cc(Nc3ccnc4cc(Cl)ccc34)ccc2F)n1` next?
Result: 17.4

Ask: Repeat for the following compound: C=C1CCC2C3(C)COC(c4ccc(NC(C)=O)cc4)OC3CCC2(C)C1C/C=C1/C(=O)OCC1O (stereo unspecified)
Result: 42.2

Ask: Another compound to check: `COc1ccc(/C(C)=C(\c2ccc(OCCN3CCOCC3)cc2)c2ccc(OC(=O)C3CCCCC3)cc2)cc1`
Result: 104

Ask: Please answer likewise for `COc1cc(/C=C2\C(=O)N(CCCCn3c4ccccc4c(=O)c4ccccc43)c3ccccc32)cc(OC)c1O`
Result: 39.9

Ask: Record: `CCN(c1cc(-c2ccc(CN3CCC(/C=C/S(=O)(=O)c4ccccc4)CC3)cc2)cc(C(=O)NCc2c(C)cc(C)[nH]c2=O)c1C)C1CCOCC1`
Result: 53.7

Ask: // next record `Clc1ccc(Nc2nc(Nc3ccc(Cl)cc3)nc(Nc3ccc(-c4cc(-c5cccc(Cl)c5)on4)cc3)n2)cc1`
Result: 86.7

Ask: Same lookup for `COc1cc(Cl)cc(-c2nn(C(=O)NS(=O)(=O)c3ccc(Cl)cc3)cc2-c2ccncc2)c1` , please.
Result: 88.9

Ask: Same thing, different compound: `CCOC(=O)C1=C(C)N=C2SC=C(c3ccc(F)cc3)N2[C@H]1c1cn(-c2ccccc2)nc1-c1ccc(Cl)cc1`
Result: 80.7

Ask: Quick one: `CCNC(=S)n1nc(SC)c(C(=O)OCC)c1N`
Result: 102

Ask: Now consider `CC(=O)c1c(C)nc(SCC(=O)Nc2ccc(Cl)cc2)n1-c1ccc(Cl)cc1` .
Result: 71.8

Ask: Quick one: `N=c1ccccn1CCO`
Result: 92.7

Ask: What do you get for `C=C1C(=O)O[C@H]2[C@H]1CC/C(COC(=O)NCc1ccc(Cn3c(=O)sn(CCCI)c3=O)cc1)=C\CC[C@@]1(C)O[C@@H]21` ?
Result: 49.2

Ask: Now the same for COC(=O)/C=C1/SC(N2N=C(c3cccs3)CC2c2ccc(F)cc2)=NC1=O (stereo unspecified)
Result: 64.5

Ask: Another compound: CN(C)CCN1C(=O)c2c(c3c4ccccc4n4c3c3c2c2ccccc2n3C2CC(O)C(O)C4(C)O2)C1=O (stereo unspecified)
Result: 30.2

Ask: Next: `c1ccc(-c2cc(-c3cc(-c4ccccc4)on3)no2)cc1`
Result: 128

Ask: Request: `O=c1ccc2nc(-c3ccccn3)nn(-c3ccccc3)c-2c1`
Result: 89

Ask: Also, `C=C(CN1CC=CCC1)[C@@H]1CC[C@]2(COC(C)=O)CC[C@]3(C)[C@H](CC[C@@H]4[C@@]5(C)CC[C@H](O)C(C)(C)[C@@H]5CC[C@]43C)[C@@H]12` please.
Result: 79.6

Ask: Try this compound next: `COCCOc1cc2ncnc(N3CCN(S(=O)(=O)c4ccccc4Cl)CC3)c2cc1OCCOC`
Result: 71.2

Ask: Try CC1=CC=C(NC(=O)/C=C/c2ccccc2)CC1Nc1nccc(-c2cccnc2)n1 (stereo unspecified) next.
Result: 25.2

Ask: Item: `CC(=NCc1ccccc1)c1ccc(O)cc1O`
Result: 81.7

Ask: Continue with `O=C1/C(=C/c2ccccc2)CN(C(=O)C(Cl)Cl)C/C1=C\c1ccccc1`
Result: -32.8

Ask: Cool, now `CC(=O)c1c(C)nc2ccccc2c1/C=C/c1cccc(C)c1`
Result: 65.8

Ask: Field entry: `NC1=CC(=O)c2cccnc2C1=O`
Result: 15.4

Ask: Could you do the same for CCCN1C(=O)/C(=c2\sc3n(c2=O)C2C(NN=3)N(CC)C(=O)N2CC)c2ccccc21 (stereo unspecified) , please?
Result: 32.9

Ask: Again, but for `COc1ccc(-c2c[nH]c(C(=O)O)c2-c2cc(OC)c(OC)c(OC)c2)cc1`
Result: 32.8

Ask: What do you get for `Cc1ccc(C(=O)Nc2nc3c(s2)CN(Cc2ccccc2)CC3)cn1` ?
Result: 74.1

Ask: Also check `CC[C@@H]1NC(=O)[C@H]([C@H](O)[C@H](C)C/C=C/c2ccc(CN3C(=O)C(C)=C(C)C3=O)cc2)N(C)C(=O)[C@H](C(C)C)N(C)C(=O)[C@H](CC(C)C)N(C)C(=O)[C@H](CC(C)C)N(C)C(=O)[C@@H](C)NC(=O)[C@H](C)NC(=O)[C@H](CC(C)C)N(C)C(=O)[C@H](C(C)C)NC(=O)[C@H](CC(C)C)N(C)C(=O)CN(C)C1=O`
Result: 39.8
